Test: Pharmacokinetics in rats
Assay type: in vivo
Conditions: Crl:CD (SD), plasma, iv; rat, 5 mg/kg, i.v. bolus
Readout: half-life (h)
Your answer is read as h, so omit the unit and give the number.

-- ask Consider the compound shown here: "N=C(N)NCCCCC(=O)Nc1cc(C(F)(F)F)cc(NC(=O)c2cc(C(=O)Nc3cc(C(F)(F)F)cc(NC(=O)CCCCNC(=N)N)c3O[C@H]3CCNC3)ncn2)c1O[C@H]1CCNC1" What is its recorded half-life?
-- reply 3

* * *

Experiment: Saturation solubility in excipients
Assay type: physicochemical
Conditions: 25% w/v Captisol in purified water, 25 °C, aqueous with cosolvent or surfactant or cyclodextrin, thermodynamic from solid, 25% w/v Captisol in purified water; read-out: saturation solubility at 25° C. (free base)
Readout: solubility (mg/mL)
Your answer is read as mg/mL, so omit the unit and give the number.

-- ask Consider the compound shown here: "N=C(N)NCCCCC(=O)Nc1cc(C(F)(F)F)cc(NC(=O)c2cc(C(=O)Nc3cc(C(F)(F)F)cc(NC(=O)CCCCNC(=N)N)c3O[C@H]3CCNC3)ncn2)c1O[C@H]1CCNC1" What is its recorded solubility?
-- reply 64.3

* * *

Test: Saturation solubility in excipients
Type: physicochemical
Conditions: propylene glycol, 25 °C, organic solvent or mixture, thermodynamic from solid, Propylene Glycol; read-out: saturation solubility at 25° C. (free base)
Readout: solubility (mg/mL)
Your answer is read as mg/mL, so omit the unit and give the number.

-- ask Consider the compound shown here: N=C(N)NCCCCC(=O)Nc1cc(C(F)(F)F)cc(NC(=O)c2cc(C(=O)Nc3cc(C(F)(F)F)cc(NC(=O)CCCCNC(=N)N)c3O[C@H]3CCNC3)ncn2)c1O[C@H]1CCNC1 [Compound A] What is its recorded solubility?
-- reply 90

* * *

Assay: Saturation solubility in excipients
Assay type: physicochemical
Conditions: 50% w/v glycerin in purified water, 25 °C, aqueous with cosolvent or surfactant or cyclodextrin, thermodynamic from solid, 50% w/v glycerin in purified water; read-out: saturation solubility at 25° C. (free base)
Readout: solubility
Just the number plus its unit, please.

-- ask Consider the molecule shown here: "N=C(N)NCCCCC(=O)Nc1cc(C(F)(F)F)cc(NC(=O)c2cc(C(=O)Nc3cc(C(F)(F)F)cc(NC(=O)CCCCNC(=N)N)c3O[C@H]3CCNC3)ncn2)c1O[C@H]1CCNC1" What is its recorded solubility?
-- reply 56.8 mg/mL

* * *

Test: Cytotoxicity colorimetric assay, HepG2
Type: cell-based, human
Conditions: human, HepG2 cells; one hour in serum-free media
Readout: EC50 at 1 h (µg/mL)
Your answer is read as µg/mL, so omit the unit and give the number.

-- ask Consider the compound shown here: "N=C(N)NCCCCC(=O)Nc1cc(C(F)(F)F)cc(NC(=O)c2cc(C(=O)Nc3cc(C(F)(F)F)cc(NC(=O)CCCCNC(=N)N)c3O[C@H]3CCNC3)ncn2)c1O[C@H]1CCNC1" What is its recorded EC50 at 1 h?
-- reply 1030

* * *

Test: in vivo
Settings: mouse, iv
Readout: MTD

-- ask Consider the compound shown here: "N=C(N)NCCCCC(=O)Nc1cc(C(F)(F)F)cc(NC(=O)c2cc(C(=O)Nc3cc(C(F)(F)F)cc(NC(=O)CCCCNC(=N)N)c3O[C@H]3CCNC3)ncn2)c1O[C@H]1CCNC1" What is its recorded MTD?
-- reply 30 mg/kg

* * *

Experiment: Saturation solubility in excipients
Format: physicochemical
Details: DMA, 25 °C, organic solvent or mixture, thermodynamic from solid, DMA; read-out: saturation solubility at 25° C. (free base)
Readout: solubility
Just the number plus its unit, please.

-- ask Consider the molecule shown here: "N=C(N)NCCCCC(=O)Nc1cc(C(F)(F)F)cc(NC(=O)c2cc(C(=O)Nc3cc(C(F)(F)F)cc(NC(=O)CCCCNC(=N)N)c3O[C@H]3CCNC3)ncn2)c1O[C@H]1CCNC1" What is its recorded solubility?
-- reply 600 µg/mL

* * *

Test: Saturation solubility in excipients
Format: physicochemical
Conditions: Tris(hydroxymethyl)aminomethane buffer, 25 °C, pH 7.4, aqueous buffer, thermodynamic from solid, pH 7.4; read-out: solubility
Readout: solubility (mg/mL)
Your answer is read as mg/mL, so omit the unit and give the number.

-- ask Consider the molecule shown here: "N=C(N)NCCCCC(=O)Nc1cc(C(F)(F)F)cc(NC(=O)c2cc(C(=O)Nc3cc(C(F)(F)F)cc(NC(=O)CCCCNC(=N)N)c3O[C@H]3CCNC3)ncn2)c1O[C@H]1CCNC1" What is its recorded solubility?
-- reply 61.4

* * *

Experiment: Saturation solubility in excipients
Format: physicochemical
Conditions: PEG 400, 25 °C, organic solvent or mixture, thermodynamic from solid, PEG 400; read-out: saturation solubility at 25° C. (free base)
Readout: solubility (mg/mL)
Your answer is read as mg/mL, so omit the unit and give the number.

-- ask Consider the compound shown here: N=C(N)NCCCCC(=O)Nc1cc(C(F)(F)F)cc(NC(=O)c2cc(C(=O)Nc3cc(C(F)(F)F)cc(NC(=O)CCCCNC(=N)N)c3O[C@H]3CCNC3)ncn2)c1O[C@H]1CCNC1 [Compound A] What is its recorded solubility?
-- reply 18.5

* * *

Assay: Saturation solubility in excipients
Format: physicochemical
Conditions: benzyl alcohol, 25 °C, organic solvent or mixture, thermodynamic from solid, Benzyl alcohol; read-out: saturation solubility at 25° C. (free base)
Readout: solubility
Just the number plus its unit, please.

-- ask Consider the compound shown here: N=C(N)NCCCCC(=O)Nc1cc(C(F)(F)F)cc(NC(=O)c2cc(C(=O)Nc3cc(C(F)(F)F)cc(NC(=O)CCCCNC(=N)N)c3O[C@H]3CCNC3)ncn2)c1O[C@H]1CCNC1 [Compound A] What is its recorded solubility?
-- reply 1830 µg/mL

* * *

Assay: Pharmacokinetics in rats
Format: in vivo
Conditions: Crl:CD (SD), plasma, iv; rat, 5 mg/kg, i.v. bolus
Readout: clearance (mL/min/kg)
Your answer is read as mL/min/kg, so omit the unit and give the number.

-- ask Consider the molecule shown here: "N=C(N)NCCCCC(=O)Nc1cc(C(F)(F)F)cc(NC(=O)c2cc(C(=O)Nc3cc(C(F)(F)F)cc(NC(=O)CCCCNC(=N)N)c3O[C@H]3CCNC3)ncn2)c1O[C@H]1CCNC1" What is its recorded clearance?
-- reply 0.467

* * *

Experiment: in vivo
Conditions: rat, iv
Readout: MTD

-- ask Consider the compound shown here: "N=C(N)NCCCCC(=O)Nc1cc(C(F)(F)F)cc(NC(=O)c2cc(C(=O)Nc3cc(C(F)(F)F)cc(NC(=O)CCCCNC(=N)N)c3O[C@H]3CCNC3)ncn2)c1O[C@H]1CCNC1" What is its recorded MTD?
-- reply > 24 mg/kg

* * *

Assay: Saturation solubility in excipients
Type: physicochemical
Settings: 30% w/v propylene glycol in purified water, 25 °C, aqueous with cosolvent or surfactant or cyclodextrin, thermodynamic from solid, 30% w/v propylene glycol in purified water; gelled during centrifugation but liquefied on standing; read-out: saturation solubility at 25° C. (free base)
Readout: solubility (mg/mL)
Your answer is read as mg/mL, so omit the unit and give the number.

-- ask Consider the compound shown here: "N=C(N)NCCCCC(=O)Nc1cc(C(F)(F)F)cc(NC(=O)c2cc(C(=O)Nc3cc(C(F)(F)F)cc(NC(=O)CCCCNC(=N)N)c3O[C@H]3CCNC3)ncn2)c1O[C@H]1CCNC1" What is its recorded solubility?
-- reply 59.1

* * *

Assay: Saturation solubility in excipients
Assay type: physicochemical
Conditions: 50% w/v propylene glycol in purified water, 25 °C, aqueous with cosolvent or surfactant or cyclodextrin, thermodynamic from solid, 50% w/v propylene glycol in purified water; read-out: saturation solubility at 25° C. (free base)
Readout: solubility (mg/mL)
Your answer is read as mg/mL, so omit the unit and give the number.

-- ask Consider the compound shown here: "N=C(N)NCCCCC(=O)Nc1cc(C(F)(F)F)cc(NC(=O)c2cc(C(=O)Nc3cc(C(F)(F)F)cc(NC(=O)CCCCNC(=N)N)c3O[C@H]3CCNC3)ncn2)c1O[C@H]1CCNC1" What is its recorded solubility?
-- reply 74.7

* * *

Test: Saturation solubility in excipients
Format: physicochemical
Settings: citric acid/sodium citrate buffer, 25 °C, pH 3, aqueous buffer, thermodynamic from solid, Citric Acid/Sodium Citrate (pH 3); read-out: saturation solubility at 25° C. (free base)
Readout: solubility (mg/mL)
Your answer is read as mg/mL, so omit the unit and give the number.

-- ask Consider the compound shown here: "N=C(N)NCCCCC(=O)Nc1cc(C(F)(F)F)cc(NC(=O)c2cc(C(=O)Nc3cc(C(F)(F)F)cc(NC(=O)CCCCNC(=N)N)c3O[C@H]3CCNC3)ncn2)c1O[C@H]1CCNC1" What is its recorded solubility?
-- reply 65.5

* * *

Experiment: Saturation solubility in excipients
Type: physicochemical
Details: 20% w/v Kleptose in purified water, 25 °C, aqueous with cosolvent or surfactant or cyclodextrin, thermodynamic from solid, 20% w/v Kleptose in purified water; read-out: saturation solubility at 25° C. (free base)
Readout: solubility (mg/mL)
Your answer is read as mg/mL, so omit the unit and give the number.

-- ask Consider the molecule shown here: "N=C(N)NCCCCC(=O)Nc1cc(C(F)(F)F)cc(NC(=O)c2cc(C(=O)Nc3cc(C(F)(F)F)cc(NC(=O)CCCCNC(=N)N)c3O[C@H]3CCNC3)ncn2)c1O[C@H]1CCNC1" What is its recorded solubility?
-- reply 79.7
